Protocol: Equilibrium fluorescence titration with Ni(II)
Assay type: binding
Test Context: 1 µM apoprotein, 25 °C; read-out: Dissociation constant Kd, Ni(II)
Test Readout: Kd (µM)
Write the number in µM without appending the unit.

For Y143F ALKBH3: ALKBH3 mutant, Tyr143 replaced with Phe (protein, UniProt Q96Q83 1-286, looked up, variant Y143F) Alpha-ketoglutarate-dependent …: MEEKRRRARVQGAWAAPVKSQAIAQPATTAKSHLHQKPGQTWKNKEHHLSDREFVFKEPQQVVRRAPEPRVIDREGVYEISLSPTGVSRVCLYPGFVDVKEADWILEQLCQDVPWKQRTGIREDITYQQPRLTAWYGELPYTFSRITMEPNPHWHPVLRTLKNRIEENTGHTFNSLLCNLYRNEKDSVDWHSDDEPSLGRCPIIASLSFGATRTFEMRKKPPPEENGDYTYVERVKIPLDHGTLLIMEGATQADWQHRVPKEYHSREPRVNLTFRTVYPDPRGAPW the molecule record lists Kd as 42
